Target: UniProt Q14416
Sequence (Q14416 19-872): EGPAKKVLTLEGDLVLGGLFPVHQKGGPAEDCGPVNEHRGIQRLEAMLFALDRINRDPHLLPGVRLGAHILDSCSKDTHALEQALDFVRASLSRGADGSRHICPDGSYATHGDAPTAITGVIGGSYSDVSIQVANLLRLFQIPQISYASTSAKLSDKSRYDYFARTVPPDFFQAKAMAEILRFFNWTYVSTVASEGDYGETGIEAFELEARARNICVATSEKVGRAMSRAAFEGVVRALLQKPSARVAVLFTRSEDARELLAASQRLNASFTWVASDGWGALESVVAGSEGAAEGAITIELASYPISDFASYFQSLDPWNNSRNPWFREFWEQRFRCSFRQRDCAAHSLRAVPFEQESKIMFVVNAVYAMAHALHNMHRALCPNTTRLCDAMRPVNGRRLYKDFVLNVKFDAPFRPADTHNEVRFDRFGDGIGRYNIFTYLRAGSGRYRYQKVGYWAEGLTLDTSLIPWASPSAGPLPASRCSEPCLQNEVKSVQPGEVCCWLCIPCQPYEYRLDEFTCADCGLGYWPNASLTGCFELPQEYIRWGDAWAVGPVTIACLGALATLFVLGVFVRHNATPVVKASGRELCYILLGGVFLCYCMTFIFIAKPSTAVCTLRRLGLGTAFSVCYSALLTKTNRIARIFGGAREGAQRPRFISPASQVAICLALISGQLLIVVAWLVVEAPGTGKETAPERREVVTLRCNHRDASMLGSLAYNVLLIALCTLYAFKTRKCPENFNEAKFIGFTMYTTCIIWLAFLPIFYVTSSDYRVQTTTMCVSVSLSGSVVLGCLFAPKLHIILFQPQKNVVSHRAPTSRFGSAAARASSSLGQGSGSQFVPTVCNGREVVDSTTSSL
Experiment: mGlu receptor in vitro assay, human mGlu2
pEC50: −log10 of the molar value.
Endpoint: pEC50

Observe how each entry below is paired with its result.
| Smiles | pEC50 |
| --- | --- |
| Cc1c(SCCCCSc2cccc(C(=O)O)c2)ccc(C(=O)CC(C)(C)C)c1O | 6.37 |
| [2H]C([2H])(CCCC([2H])([2H])Oc1ccc(C(=O)CCC)c(O)c1C)Oc1ccc(C(=O)O)c(Cl)c1 | 8.22 |
| CCCC(=O)c1ccc(OCCSCCOc2ccc(C(=O)O)c(Cl)c2)c(C)c1O | 7.55 |

1 = CCCC(=O)c1ccc(OCc2nc(-c3cccc(C(=O)O)c3)no2)c(C)c1O
2 = COc1cc(C(=O)O)cc(-c2cnc(COc3ccc(C(=O)CC(C)(C)C)c(O)c3C)cn2)c1
Lookup: Identify the entry with the larger pEC50. Options: 1 and 2 State the label of the item chosen.
Found: 1

a = COc1ccc(C(=O)O)cc1OCCCCOc1ccc(C(=O)c2ccccc2)c(O)c1C
b = COc1ccc(C(=O)O)cc1OCCCCOc1ccc(C(=O)CC(C)(C)C)c(O)c1
Lookup: Identify the entry with the larger pEC50. Options: a and b State the label of the item chosen.
Found: b
(b: 6.89, a: 6.49)
